These data points were gathered from the supplement of paper PMC10567573.

Measured protein stability index, listed per entry for reference.
B1: NFE2L1 (parent)
chain: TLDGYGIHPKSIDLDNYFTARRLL

variants of: B1; assay: protein stability index of a GFP-peptide fusion (GPS, HEK-293T) (PSI 1-6); higher = more stable; details: c terminus: a fixed tail appended;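 also: lentivirally expressed fusions sorted by FACS into six bins by GFP to DsRed ratio, PSI derived from sequencing read proportions per bin multiplied by bin number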

[[record]]
variant_designation = "R21Y"
measure = "protein stability index"
measured_value = 3.26

[[record]]
variant_designation = "G6P"
measure = "protein stability index"
measured_value = 1.76

[[record]]
variant_designation = "T19F"
measure = "protein stability index"
measured_value = 1.71


Query string: protein stability index lookup needed for K10N , thanks.
Result string: 2.44

Query string: For the variant shown here, R21Q , give the reported protein stability index.
Result string: 1.71

Query string: Record request: protein stability index value, item F18Q
Result string: 2.69
